Values from paper PMC10743895

So I've got a bunch of compounds here, and I need their Maximum Average L% (lethality) values.
tested on: Daphnia magna; test: Daphnia magna toxicity assay; format: in vivo; conditions: 24 h, up to 200 µM
Express it in %; write the number only.

Problem: // query Maximum Average L% (lethality) value for entry Nc1nnc(-c2ccccc2CSc2ccccc2)s1 [2f]
Result: 5

Problem: // query Maximum Average L% (lethality) value for entry Cc1ccc(-c2nnc(N)s2)cc1 [2b]
Result: 10

Problem: // query Maximum Average L% (lethality) value for entry Nc1nnc(-c2ccccc2CS(=O)(=O)c2ccccc2)s1 [2g]
Result: 0

Problem: // query Maximum Average L% (lethality) value for entry O=C(Nc1nnc(-c2ccccc2)s1)c1ccccc1CSc1ccccc1 [3c]
Result: 10

Problem: // query Maximum Average L% (lethality) value for entry COc1cc(-c2nnc(N)s2)cc(OC)c1OC [2e]
Result: 0

Problem: // query Maximum Average L% (lethality) value for entry Nc1nnc(-c2ccc(O)c(O)c2)s1 [2c]
Result: 0

Problem: // query Maximum Average L% (lethality) value for entry Nc1nnc(-c2ccccc2)s1 [2a, 5-Phenyl-1,3,4-thiadiazol-2-amine]
Result: 0

Problem: // query Maximum Average L% (lethality) value for entry O=C(Nc1nnc(-c2ccccc2)s1)c1ccccc1 [3b]
Result: 5

Problem: // query Maximum Average L% (lethality) value for entry CC(=O)Nc1nnc(-c2ccccc2)s1 [3a]
Result: 95

Problem: // query Maximum Average L% (lethality) value for entry COc1ccc(OC)c(-c2nnc(N)s2)c1 [2d]
Result: 40
